System: RXF 393 renal
Run description: NCI-60 one-dose screen, 48 h (100 = growth as untreated, 0 = no growth, -100 = all killed)
Condition details: 10 µM unless noted
About 83,000 compounds went through this panel and 20% of them were active in at least one assay; those are over-represented in the sample as a whole. Active and inactive are the calls of the source. Rule for the calls: active = growth percent below 10; inactive = the rest.
Measurement label: growth

Query for RXF 393 renal: what growth does the record show for CC(C)C[C@H](C(=O)N[C@@H](C)C(N)=O)N1CC=CCN(O)S1(=O)=O ? 119% [5 µM] (inactive)

Proceed to COc1ccc(C2=C(c3cccc(OC)c3)C(=O)c3ccc(C)nc3C2=O)cc1 33.3% (inactive)

Thanks! And COc1cc(/C=C2\CN(C)C/C(=C\c3cc(CN4CCOCC4)c(O)c(OC)c3)C2=O)cc(CN2CCOCC2)c1O ? 78% (inactive)

Try the molecule CN1CCN(c2nc(Nc3ccc(O)cc3)nc3ccccc23)CC1 77.3% (inactive)

Now try Cc1cc2c(c(C)c1Cl)C(=O)/C(=C/c1ccco1)O2 . 124% (inactive)

Then COC(=O)/C(CCC=C(C)C)=C1\[C@@H](OC(C)=O)C[C@@]2(C)[C@H]1CC(=O)N[C@H]1[C@@]3(C)CCNC(=O)[C@@H](C)[C@@H]3CC[C@@]12C ? 112% (inactive)

Please answer likewise for COc1c(B(O)O)cccc1-c1nc2ccc3[nH]ncc3c2c2c1C1CCC2C1 (centres undefined) 28.5% (inactive)

Let us now turn to Nc1ncnc(N)c1NC(=O)c1ccc(OCc2ccccc2)cc1 107% (inactive)

Another molecule: COc1ccc2sc3c(NCCCN)nc4ccccc4c3c(=O)c2c1 49.5% (inactive)

* * *

Test system: NCI-H460 lung
Run description: NCI-60 one-dose screen, 48 h (100 = growth as untreated, 0 = no growth, -100 = all killed)
Condition details: 10 µM unless noted
Compounds without any hit were thinned out: in the full panel of roughly 83,000, 20% have a hit.
Label True when growth is strictly below 10%; otherwise label False.

Lab note: confirm whether the reported growth for this compound is below 10%, equality not counting. compound: COc1ccc(/C(C#N)=C/c2nc3c(N4CCOCC4)nc(Cl)nc3n2C)cc1OC True

Okay, and COc1cccc(C(=O)Cn2cc(/C=C(\C#N)S(=O)(=O)c3ccccc3)c3ccccc32)c1 ? False

Follow-up entry: CCn1c(Cc2ccccc2Nc2c(Cl)cccc2Cl)nnc1SCC(=O)NN1C(=O)/C(=C/c2cccc(OC)c2OC)SC1=S False

Consider next the compound COC(=O)[C@H](NC(=O)C1(C)CCC[C@]2(C)[C@H]3C[C@H]4C(C(C)C)=C[C@]3(CC[C@@H]12)[C@@H]1C(=O)CCC(=O)[C@@H]14)C(C)C (some centres undefined) in the same way. False

Next up: NCCNc1nc2ccccc2c2c(=O)c3cc(F)cc(Cl)c3sc12 True

Follow-up item: CCCCCCc1cc2cc(-c3nc4ccccc4[nH]3)c(=Nc3ccccc3C)oc2cc1O False

Same question for COc1cc(OC)cc(N2C(=O)N(Cc3ccc(C(C)(C)C)cc3)c3ccccc3S2(=O)=O)c1 please. False

Next record, please: O=C1c2ccccc2C(=O)c2c1ccc1[nH]c(CCl)nc21 True

And O=C(O)CCCN1C(=O)C2C3CCC(C3)C2C1=O (centres undefined) ? False

Now the compound CC1=C(C(=O)OCC2CCN(C(=O)OC(C)(C)C)CC2)[C@H](c2cccc(C#N)c2)C2=C(CC(C)(C)CC2=O)N1 False

Now consider Cc1cc(Br)c(N)c(Br)c1 and answer again. False

What about this compound? COC(=O)/C(CCC=C(C)C)=C1\[C@@H](OC(C)=O)C[C@@]2(C)[C@H]1CC(=O)N[C@H]1[C@@]3(C)CCNC(=O)[C@@H](C)[C@@H]3CC[C@@]12C False

Thanks! And Cc1[nH]c2ccccc2c(=O)c1CC=C(Cl)Cl ? True

Cc1ccc(OCCCCCCNCCO)c(C)c1 , same question. True

Now give it for C=C1C(=O)O[C@H]2[C@H]1CC/C(COC(=O)/C=C\C(=O)O)=C\CC[C@@]1(C)O[C@@H]21 too. False

Entry O=c1c(-c2nc3ccccc3[nH]2)cc2ccccc2n1Cc1cn(Cc2ccccc2Cl)nn1 please True

Lookup CCn1c(-c2nonc2Nc2ccc(OC)cc2)nc2ccccc21 False

Check CC(=O)Nc1nc2c(s1)CCc1c-2cn(S(=O)(=O)c2ccccc2)c1-c1ccccc1 too. False

// next record O=C(Cn1cc(COc2ncnc3c2cnn3-c2ccccc2)nn1)Nc1ccccn1 False

* * *

Tested on: NCI-H23 lung
Run description: NCI-60 one-dose screen, 48 h (100 = growth as untreated, 0 = no growth, -100 = all killed)
Condition details: 10 µM unless noted
Compounds without any hit were thinned out: in the full panel of roughly 83,000, 20% have a hit.
Record form. Attribute: growth. Fill in for each entry.
Just the number in %, nothing appended.

Report growth for Clc1ccc(Nc2nnc(-c3ccc4c(c3)OCO4)o2)cc1 please. 101

Same question, CCCSC1=NC2C(N(CC)C(=O)N2CC)N1/N=C/C=C/c1ccccc1[N+](=O)[O-] (stereo unspecified) this time 46.5

How about CCn1c(-c2nonc2Nc2ccc(OC)cc2)nc2ccccc21 ? 107

Can you handle CCOc1ccc(-c2nonc2NC(=O)c2cccc(C)c2)cc1OCC next? 78.9

One more molecule: COc1ccc2occ(C3=C(c4c[nH]c5ccccc45)C(=O)NC3=O)c2c1 62.2

Query CN1C(=O)N(C)C2C1NN=c1s/c(=C\c3ccc([N+](=O)[O-])cc3)c(=O)n12 (stereo unspecified) next 87.3

* * *

Test system: UO-31 renal
Run description: NCI-60 one-dose screen, 48 h
Condition details: 10 µM unless noted
This is part of a sample that, as a whole, favours compounds with a hit. Of some 83,000 tested, about 20% had one in any assay. Active and inactive are the calls of the source. How the source made its calls: active means growth percent below 10; inactive means the rest.
The reply should name one outcome from 1 for active, -1 for inactive

For CCn1c(SCC(=O)Nc2cc(C(F)(F)F)ccc2Cl)nc2ccccc2c1=O , which call appears in the assay record? -1

Then this compound: O=C(Nc1ccc(N2CCNCC2)cn1)c1[nH]ncc1Nc1ncnc2sccc12 -1

Lookup CC(=O)c1ccc(NC(=O)Nc2ccc(S(=O)(=O)Nc3ccc(Cl)nn3)cc2)cc1 -1

Param item: O=C1NC(=S)NC(=O)C1=Cc1cn(Cc2cn(Cc3cccc4ccccc34)nn2)c2ccccc12 -1

Now consider COc1ccc(Br)c(/C=C2\SC(=Nc3ccc(O)cc3)NC2=O)c1 and answer again. -1

Queued: CCN1C(=O)N(c2ccccc2)C2Nn3c(s/c(=C4\C(=O)N(C(C)C)c5ccccc54)c3=O)=NC21 (stereo unspecified) -1

Same for COc1ccc(-c2nsc3c2NC(=O)CC3c2cccc(OC)c2)cc1 (stereo unspecified) -1

Follow-up entry: CCCCCCc1cc2cc(-c3csc(/C=C/c4ccccc4)n3)c(=O)oc2cc1O -1

Item: CCOC(=O)C1(C(=O)OCC)N=C(c2ccccc2)C=C1c1ccccc1 -1

Another compound to look at: S=C1CCCC(=S)N1 -1

Field entry: CCC1=C[C@]2(C3CC(=O)N(c4ccccc4)C3=O)CC(C(C)(C)C)C[C@@H]2[C@@H]2C(=O)N(c3ccccc3)C(=O)[C@H]12 (stereo partly specified) -1

Moving on to the next compound: Cc1ccccc1CNC(=O)C1CN(c2ccc(Cl)cc2)N(c2ccc(Cl)cc2)C1=O (stereo unspecified) -1

Same for O=S1(=O)CCN(Cc2ccccc2)CC1 -1

Next: O=c1oc2ccc(I)cc2c(=O)n1-c1ccc(I)cc1F 1

Same question, COc1ccccc1N1CCN(C(CNS(=O)(=O)c2ccc(Cl)cc2)c2cccnc2)CC1 (stereo unspecified) this time -1

Follow-up entry: COc1cc(/C(C#N)=C/c2nc3c(N4CCOCC4)nc(Cl)nc3n2C)cc(OC)c1OC 1

Next compound: CC(C)(C)c1ccc(C2CC(=O)C3=C(C2)Nc2ccccc2N(C(=O)c2ccccc2Cl)C3c2ccc(F)cc2)cc1 (stereo unspecified) -1

Follow-up entry: CC/C(=C(\CC)c1ccc(OCC[N+](C)(C)C)cc1)c1ccc(OC)cc1 -1

What do you have for CCOC(=O)c1sc(-c2ccc(OS(=O)(=O)c3ccc(Br)s3)c(C=O)c2)nc1C ? 1

Queued: COC(=O)C1(C)COP(=O)(Nc2ccc(OC)cc2)OC1 (stereo unspecified) -1

Field entry: COC(=O)/C(=C\c1c(C)[nH]c2ccccc12)S(=O)(=O)c1ccccc1 -1

Same read-out for S=C1NC2(c3ccccc3)CCC(=S)N2c2ccccc21 (stereo unspecified) ? -1

What do you have for NNC(=O)CNC(=O)Nc1n[nH]c(=S)s1 ? -1

And then COc1ccc(OC)c(N(CCN2C(=O)c3ccccc3C2=O)C(=O)CCl)c1 , what is it? 1

Try this compound too: Nc1nc2c(ncn2[C@@H]2O[C@H](CS)[C@@H](O)[C@H]2O)c(=O)[nH]1 -1

And for CCN(CC)CCNC(=O)C(Cl)=C1C(Cl)=C(Cl)C(Cl)=C1Cl ? -1

Follow-up item: COc1ccc(C2C3=C(COC3=O)N(CCO)c3cc4c(cc32)OCCO4)cc1 (stereo unspecified) -1

Same read-out for O=C(Nc1ccc(Cl)cc1F)c1cc(F)ccc1O ? 1

Next compound up: CC(C)C[C@H](C(=O)N[C@@H](C)C(N)=O)N1CC=CCN(O)S1(=O)=O -1

What do we get for COc1ccc(CCN2C(=O)CCSC2=S)cc1 ? -1

Next compound up: C#CCn1cc(C=C2C(=O)N(C)C(=O)N(C)C2=O)c2cc(Cl)ccc21 -1

Entry to check: COc1ccc(/C(C#N)=C/c2nc3c(N4CCOCC4)nc(Cl)nc3n2C)cc1OC 1

Now consider CCN1C(=O)N(CC)C2C1NN=c1s/c(=C3\C(=O)N(C(C)C)c4ccccc43)c(=O)n12 (stereo unspecified) and answer again. -1

Then O=C(Nc1ccc(Cl)cc1)c1cc2ccccc2cc1OP(=O)(O)O ? 1

And COc1cc(/C=C/C(=O)N2c3ccccc3CC2C)c(OC)c2c1OCO2 (stereo unspecified) ? -1

Same question for COC(=O)c1c2c(c(C)[n+]([O-])c1C)C(=O)C=C(NCc1ccc(F)c(F)c1)C2=O please. 1

Field entry: O=C(/C=C/c1ccc(F)cc1)c1ccc(Nc2nc(NCCO)nc(Nc3ccc(Cl)cc3)n2)cc1 -1

Field entry: O=S(=O)(c1ccccc1)n1cc2c(c1-c1ccccc1)CCc1sc(Nc3ccccc3)nc1-2 -1

Next: COc1cc(C(C)n2cc(-c3ccccc3)nn2)ccc1OC1CCCCC1 (stereo unspecified) -1

And the next one, Nc1nc(-c2cnccn2)nn1-c1nc2ccccc2s1 ? -1

What do you have for O=C(/C=C/c1ccccn1)c1ccc(OCc2nnc(-c3ccc(Cl)cc3)o2)cc1 ? 1

// provenance: PubChem BioAssay (NCI)
